MEASURED TARGET: Neurotensin receptor NTS1 (HT29 cells/membranes) (human, UniProt P30989)
Sequence (P30989 whole entry): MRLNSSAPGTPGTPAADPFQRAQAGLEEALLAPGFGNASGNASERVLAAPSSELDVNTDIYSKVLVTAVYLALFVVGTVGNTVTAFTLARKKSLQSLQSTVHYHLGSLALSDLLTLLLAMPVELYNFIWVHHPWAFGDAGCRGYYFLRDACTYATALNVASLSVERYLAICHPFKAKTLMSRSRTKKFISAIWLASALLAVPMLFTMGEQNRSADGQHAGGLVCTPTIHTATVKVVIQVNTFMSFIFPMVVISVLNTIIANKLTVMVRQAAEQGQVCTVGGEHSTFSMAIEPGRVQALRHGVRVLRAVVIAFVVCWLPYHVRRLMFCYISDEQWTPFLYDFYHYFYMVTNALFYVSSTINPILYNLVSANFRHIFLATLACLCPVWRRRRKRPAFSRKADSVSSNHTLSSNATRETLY
ASSAY OVERVIEW: competition, HT29 membranes
Overview of recorded pKi for various binders
Hey, just a heads up that pKi is the negative log base 10 of the concentration in molar.

KPRRPYIL (not fully specified; N-methylated Pro7-Arg8 bond, Tle12; DTPA(In) at Lys6) [DTPA(In)-NT-20.3]    8.65

Sample KPRRPYIL (NT(6-13) analogue, N-methylated Pro7-Arg8 bond, Tle12) [NT-20.3] — what was its pKi?
9.80
